The reported measurements were obtained from ChEMBL document CHEMBL1149467.

test system: SARS-CoV; assay: Inhibition of human SARS-CoV Toronto-2 in a cell based assay; format: functional, organism-based; conditions: Severe acute respiratory syndrome-related coronavirus
observedProperty: EC50 (µM)
Give bare numbers, in µM.

Task: Item O=C(O)c1ccc(/N=C/c2c(O)ccc3oc4c(c23)CCCC4)cc1 has what recorded EC50?
Output: 23
